Data provenance is ChEMBL document CHEMBL1932988.

- System: Candida albicans
- Assay Method Text: Antifungal activity against Candida albicans MTCC 227 after 48 hrs by tube dilution method hrs followed by subculturing
- Type: functional
Recorded Metric: MFC

Could you tell me which MFC is on file for CCOC(=O)C1=C(C)NC(=S)NC1c1cn(C(=O)CNc2ccc(Cl)cc2)c2ccccc12 (stereo not drawn) ? >0.1 uM/ml

Could you tell me which MFC is on file for CCOC(=O)C1=C(C)NC(=S)NC1c1cn(C(=O)CNc2ccc([N+](=O)[O-])c(Cl)c2)c2ccccc12 (stereo not drawn) ? >0.09 uM/ml

Moving on to another compound below.
Could you tell me which MFC is on file for CCOC(=O)C1=C(C)NC(=O)NC1c1cn(C(=O)CNc2ccc([N+](=O)[O-])cc2)c2ccccc12 (stereo not drawn) ? >0.1 uM/ml

---

- Tested on: Bacillus subtilis
- Assay Method Text: Antibacterial activity against Bacillus subtilis MTCC 2063 after 24 hrs by tube dilution method hrs followed by subculturing
- Format: functional
Entries and their measured MBC follow.

Example results:
Could you tell me which MBC is on file for CCOC(=O)C1=C(C)NC(=O)NC1c1cn(C(=O)CNc2ccc([N+](=O)[O-])cc2Cl)c2ccccc12 (stereo not given) ? >0.1 uM/ml

Could you tell me which MBC is on file for CCOC(=O)C1=C(C)NC(=S)NC1c1cn(C(=O)CNc2ccccc2N)c2ccccc12 (stereo not given) ? >0.11 uM/ml

Could you tell me which MBC is on file for CCOC(=O)C1=C(C)NC(=S)NC1c1cn(C(=O)CNc2ccccc2[N+](=O)[O-])c2ccccc12 (stereo not given) ? >0.1 uM/ml

Could you tell me which MBC is on file for CCOC(=O)C1=C(C)NC(=S)NC1c1cn(C(=O)CNc2ccccc2)c2ccccc12 (stereo not given) ? >0.11 uM/ml

Moving on to another molecule below.
Could you tell me which MBC is on file for CCOC(=O)C1=C(C)NC(=S)NC1c1cn(C(=O)CNc2ccccc2Cl)c2ccccc12 (stereo not given) ? >0.1 uM/ml
